A collection of compounds and their measured Diameter (nm)
test details: Diameter and PDI from DLS measurements of mRNA nanoparticles with lipid amines
Format: physicochemical
measurement conditions: Luciferase mRNA nanoparticle modified with lipid amine
Where a name gives a salt, the structure may show the parent alone.

compound	Diameter (nm)
CC[C@H](CC[C@@H](C)[C@H]1CC[C@H]2[C@@H]3CC=C4C[C@@H](OC(=O)N(CCCCNCCC(N)(CC)CC)CCC(N)(CC)CC)CC[C@]4(C)[C@H]3CC[C@]12C)C(C)C [SA183, trihydrochloride]	76 nm
CC[C@H](CC[C@@H](C)[C@H]1CC[C@H]2[C@@H]3CC=C4C[C@@H](OC(=O)CCCC(=O)N(CCCCNCCC(C)(C)N)CCC(C)(C)N)CC[C@]4(C)[C@H]3CC[C@]12C)C(C)C.Cl.Cl.Cl	79 nm
CC[C@H](CC[C@@H](C)[C@H]1CC[C@H]2[C@@H]3CC=C4C[C@@H](OC(=O)CCCCC(=O)N(CCCN)CCCCNCCCN)CC[C@]4(C)[C@H]3CC[C@]12C)C(C)C [SA90, trihydrochloride]	76 nm
CC(C)CCC[C@@H](C)[C@H]1CC[C@H]2[C@@H]3CC=C4C[C@@H](OC(=O)CN(CCCN)CCCCCCCCN)CC[C@]4(C)[C@H]3CC[C@]12C [SA71, trihydrochloride]	73 nm

# credit: patent US20260109732A1
